Values compiled from patent US20250250357A1.

Maximum mean fluorescence intensity values by entry
Molecular target: T1, monkey MSLN full-length protein (NCBI: XP_028696439.1) expressed on HEK293T-monkey MSLN cells (monkey)
T1 construct: Whole encoded precursor
T1 chain: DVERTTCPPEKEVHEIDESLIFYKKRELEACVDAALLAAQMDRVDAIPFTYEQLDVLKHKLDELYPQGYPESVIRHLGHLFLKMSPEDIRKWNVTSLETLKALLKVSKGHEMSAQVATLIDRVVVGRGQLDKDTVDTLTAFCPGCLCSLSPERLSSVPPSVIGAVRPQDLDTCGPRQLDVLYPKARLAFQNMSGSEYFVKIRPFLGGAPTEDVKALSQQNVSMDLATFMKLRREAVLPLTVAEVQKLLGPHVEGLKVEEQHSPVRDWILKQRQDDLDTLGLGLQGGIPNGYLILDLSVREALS
Experiment: FACS on HEK293T-monkey MSLN cells;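 further: flow cytometry binding of chimeric antibodies to the cells, with a 2 h incubation on ice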
Please state the value as a number alone, without comment.

Which Maximum mean fluorescence intensity is reported for this binder? S009-F7.33.24 (antibody, human IgG1, kappa, V domains shown, human-murine chimeric antibody, human IgG1/kappa constant regions) VH: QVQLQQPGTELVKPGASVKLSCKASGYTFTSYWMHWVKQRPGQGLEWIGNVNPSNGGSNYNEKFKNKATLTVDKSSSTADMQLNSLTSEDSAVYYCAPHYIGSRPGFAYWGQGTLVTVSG VL: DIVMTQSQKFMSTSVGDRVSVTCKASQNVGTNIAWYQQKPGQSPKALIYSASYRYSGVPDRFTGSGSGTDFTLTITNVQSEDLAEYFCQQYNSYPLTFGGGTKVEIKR
47300

Which Maximum mean fluorescence intensity is reported for this binder? S009-F7.48.1 (antibody, human IgG1, kappa, V domains shown, human-murine chimeric antibody, human IgG1/kappa constant regions) VH: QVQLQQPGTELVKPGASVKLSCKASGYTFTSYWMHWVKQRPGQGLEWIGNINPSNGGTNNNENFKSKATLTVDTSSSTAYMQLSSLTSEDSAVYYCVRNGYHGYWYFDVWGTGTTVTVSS VL: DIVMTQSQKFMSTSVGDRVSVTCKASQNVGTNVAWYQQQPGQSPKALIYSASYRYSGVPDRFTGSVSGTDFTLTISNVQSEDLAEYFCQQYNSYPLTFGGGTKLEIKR
43200

Which Maximum mean fluorescence intensity is reported for this binder? S009-F7.66.12 (antibody, human IgG1, kappa, V domains shown, human-murine chimeric antibody, human IgG1/kappa constant regions) VH: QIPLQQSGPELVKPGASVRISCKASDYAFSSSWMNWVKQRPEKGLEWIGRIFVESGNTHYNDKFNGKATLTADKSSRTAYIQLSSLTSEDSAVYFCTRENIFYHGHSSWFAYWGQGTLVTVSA VL: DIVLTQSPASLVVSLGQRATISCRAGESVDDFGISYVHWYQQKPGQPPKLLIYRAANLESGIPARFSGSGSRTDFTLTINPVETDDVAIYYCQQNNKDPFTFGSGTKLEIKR
60
